Cited source: the supplement of paper PMC13380429

System: Caco-2
Test: cell viability relative to DMSO; higher = less toxic
Settings: 72 h; 10000 nM
endpointName: cell viability (%)
Numbers only, in %.

Below, 5 compounds whose answers are already recorded.
>  <compound>
O=C1C2CCN(CC2)C1(CO)CO

>  <cell viability (%)>
66.9

$$$$
>  <compound>
CCOC(=O)C1=C(N)Oc2ccc(Br)cc2C1C(C#N)C(=O)OCC (stereo unspecified)

>  <cell viability (%)>
99.5

$$$$
>  <compound>
O=C(O)c1cc(O)c2c(c1)[C@H]([C@H]1c3cc(C(=O)O)cc(O)c3C(=O)c3c(O[C@@H]4O[C@H](CO)[C@@H](O)[C@H](O)[C@H]4O)cccc31)c1cccc(O[C@@H]3O[C@H](CO)[C@@H](O)[C@H](O)[C@H]3O)c1C2=O [sennoside-A]

>  <cell viability (%)>
123

$$$$
>  <compound>
CCCCCCCCCCCCCCCCCCCCCCO

>  <cell viability (%)>
82.1

$$$$
>  <compound>
CCCCCCCCCCOc1cc2c(O)c(C(=O)OCC)cnc2cc1OCC [decoquinate]

>  <cell viability (%)>
96.6

$$$$

Dear colleague, could you please provide cell viability for the compounds listed below?
1. CC[N+](CC)(CC)CCC(O)(c1ccccc1)C1CCCCC1 (stereo unspecified)
2. Cc1ccc2c(c1)c1c3n2CCNC3CCC1 (stereo unspecified)

110
104

Dear colleague, could you please provide cell viability for the compounds listed below?
1. S=C(NC1CCCCC1)N1CCC(c2cnc[nH]2)CC1 [thioperamide]
2. CCN(CC)C(=O)N1CCN(C)CC1

1. 95.4
2. 99.9

----------
Test system: Caco-2
Experiment: cell viability relative to DMSO; higher = less toxic
Details: 72 h; 10 nM
Exercise: for every item that follows, state its recorded cell viability.
Answers are plain numbers, in %.

>  <molecule>
CCOC(=O)NNc1ccc(N(CC)CC(C)O)nn1 (stereo not drawn)

>  <cell viability (%)>
97.4

$$$$
>  <molecule>
O=C(O)CCCc1c[nH]c2ccccc12

>  <cell viability (%)>
88.5

$$$$
>  <molecule>
CCOc1nc2cccc(C(=O)OC(C)OC(=O)OC3CCCCC3)c2n1Cc1ccc(-c2ccccc2-c2nn[nH]n2)cc1 (stereo not drawn)

>  <cell viability (%)>
100

$$$$

Dear colleague, could you please provide cell viability for the molecules listed below?
1. C[C@H](NC(=O)[C@@H](O)c1cc(F)cc(F)c1)C(=O)N[C@@H]1C(=O)N(C)c2ccccc2-c2ccccc21
2. NCCOB(c1ccccc1)c1ccccc1

1. 89.2
2. 93.3

----------
Exercise: for every item that follows, state its recorded cell viability.
Tested on: HepG2
Test: cell viability relative to DMSO; higher = less toxic
Conditions: 72 h; 1 nM
Numbers only, in %.

>  <compound>
c1ccc2c(c1)OC[C@H](CNCCCOc1ccc3c(c1)OCO3)O2

>  <assaySystem>
HepG2

>  <cell viability, %>
99.1

$$$$
>  <compound>
CCOCCn1c(N2CCCN(C)CC2)nc2ccccc21

>  <assaySystem>
HepG2

>  <cell viability, %>
89

$$$$
>  <compound>
O=C(O)C(=O)Nc1cccc(-c2nnn[nH]2)c1

>  <assaySystem>
HepG2

>  <cell viability, %>
94.8

$$$$
>  <compound>
O=C(O)[C@H]1CCCN(CCC=C(c2ccccc2)c2ccccc2)C1 (racemic)

>  <assaySystem>
HepG2

>  <cell viability, %>
107

$$$$
>  <compound>
c1cnc2cc3c(cc2n1)[C@@H]1CNC[C@H]3C1

>  <assaySystem>
HepG2

>  <cell viability, %>
97.2

$$$$

Dear colleague, could you please provide cell viability for the compounds listed below?
1. C=CCc1cc(OC)c(O)c(C(=O)NCCO)c1 [alibendol]
2. O=C(O)c1ccc(S(=O)(=O)N(Cc2ccc(OC(F)(F)F)cc2)c2ncc(C(F)(F)F)cc2Cl)cc1
3. CCC(=O)N1CCN(c2ccc(-n3c(=O)ccc4cnc5ccc(-c6cnc7ccccc7c6)cc5c43)cc2C(F)(F)F)CC1
4. O=C(O)C[CH2][Ge](=[O])[O][Ge](=[O])[CH2]CC(=O)O
5. NCCCCCCCCCCNS(=O)(=O)c1cccc2c(Cl)cccc12

1. 92.4
2. 104
3. 101
4. 104
5. 112

Dear colleague, could you please provide cell viability for the compounds listed below?
1. NCC(=O)N[C@@H](CCC(N)=O)C(=O)O
2. CC(C)(C)c1cc(C(=O)/C=C/c2ccc(C(=O)O)cc2)cc(C(C)(C)C)c1
3. OCC(Br)(Br)Br
4. CC1=CC(=O)c2ccccc2C1=O
5. Oc1cc(O)cc(O)c1
6. C[C@@](Cc1ccc(O)c(O)c1)(NN)C(=O)O

86.6
109
99.3
102
103
107

Dear colleague, could you please provide cell viability for the compounds listed below?
1. CCCN(CCC)[C@@H]1CCc2c(OC)cccc2[C@@H]1C [UH-232-(+)]
2. N[C@@H]1CCN(c2cccnc2)C1
3. Cc1cc(C(=O)Nc2cccc(C(=O)Nc3cccc(C(F)(F)F)c3)c2)on1
4. CC(C)n1cnc2c(C(=O)N[C@H]3CN4CCC3CC4)cc(Cl)cc21
5. CCOC(=O)C1=C(C)NC(C)=C(C(=O)OC)C1c1cccc(Cl)c1Cl (stereo unspecified)

[97.7, 97.8, 103, 116, 105]
